species on record: Rattus norvegicus; experiment: Open TG-GATES - Regimen: Single; assay type: toxicity, organism-based, Sprague-Dawley; parameters: regimen Single, gender Male, age 6 weeks; details: in vivo, po, 0 mg/kg, 9 h, tissue Blood, route gavage, dose level Control
As shown below, each of these molecules has a reported Ret value.
Give your result in % as a bare value.

# annotated cases, reported Ret shown
molecule	measured endpoint	readout value
O=[N+]([O-])c1ccc(O)c([N+](=O)[O-])c1	Ret	9.4
Cc1cccc(C)c1OCC(C)N (stereo not given)	Ret	8
CCOC(=O)C(C)(C)Oc1ccc(Cl)cc1 [CLOFIBRATE]	Ret	7.1
OCCN1CCN(CCCN2c3ccccc3Sc3ccc(C(F)(F)F)cc32)CC1	Ret	8.6

Now consider a different molecule.
Find the measured Ret of Cc1ccc2cc3c(ccc4ccccc43)c3c2c1CC3 and report it.
9

====

organism: Rattus norvegicus; assay: Open TG-GATES - Regimen: Single; type: toxicity, organism-based, Sprague-Dawley; design: regimen Single, gender Male, age 6 weeks; conditions: in vivo, po, 0 mg/kg, 3 h, tissue Blood, route gavage, dose level Control
measured endpoint: MCHC (%)
Give your result in % as a bare value.

# annotated cases, reported MCHC shown
compound	unit	MCHC
O=[N+]([O-])c1ccc(O)c([N+](=O)[O-])c1	%	33.5
C=C(C)[C@H]1Cc2c(ccc3c2O[C@@H]2COc4cc(OC)c(OC)cc4[C@@H]2C3=O)O1	%	33
Cc1ccc2cc3c(ccc4ccccc43)c3c2c1CC3	%	32.6

Find the measured MCHC of C[C@H]1O[C@H](O[C@H]2[C@H](O)[C@@H](O)[C@@H](O[C@H]3[C@H](O)[C@@H](O)C(O)O[C@@H]3CO)O[C@@H]2CO)[C@H](O)[C@@H](O)[C@@H]1N[C@H]1C=C(CO)[C@@H](O)[C@H](O)[C@H]1O (some centres undefined) and report it.
32.6

Find the measured MCHC of Cc1cccc(C)c1OCC(C)N (centres undefined) and report it.
32.4

====

As shown below, each of these molecules has a reported RALB value.
species: Rattus norvegicus; test: Open TG-GATES - Regimen: Daily Repeat; type: toxicity, organism-based, Sprague-Dawley; parameters: regimen Daily Repeat, gender Male, age 6 weeks; conditions: in vivo, po, 0 mg/kg, 72 h, tissue Plasma, route gavage, dose level Control, time 3 day
Give your result in g/dL as a bare value.

# annotated cases, reported RALB shown
molecule	RALB (g/dL)
C[C@H]1O[C@H](O[C@H]2[C@H](O)[C@@H](O)[C@@H](O[C@H]3[C@H](O)[C@@H](O)C(O)O[C@@H]3CO)O[C@@H]2CO)[C@H](O)[C@@H](O)[C@@H]1N[C@H]1C=C(CO)[C@@H](O)[C@H](O)[C@H]1O (some centres undefined) [ACARBOSE]	2.6
C[C@H]1C(=O)O[C@@H]2CCN3CC=C(COC(=O)[C@](C)(O)[C@]1(C)O)[C@H]23 [MONOCROTALINE]	3.1
O=[N+]([O-])c1ccc(O)c([N+](=O)[O-])c1 [2,4-DINITROPHENOL]	3.9

Find the measured RALB of CCOC(=O)C(C)(C)Oc1ccc(Cl)cc1 [CLOFIBRATE] and report it.
3.5

Find the measured RALB of Cc1cccc(C)c1OCC(C)N (centres undefined) [MEXILETINE] and report it.
3

Find the measured RALB of O=C1CN(/N=C/c2ccc([N+](=O)[O-])o2)C(=O)N1 [NITROFURANTOIN] and report it.
3.4

Find the measured RALB of Cn1cc[nH]c1=S [METHIMAZOLE] and report it.
3.2

Find the measured RALB of C=C(C)[C@H]1Cc2c(ccc3c2O[C@@H]2COc4cc(OC)c(OC)cc4[C@@H]2C3=O)O1 [ROTENONE] and report it.
3.8

Find the measured RALB of OCCN1CCN(CCCN2c3ccccc3Sc3ccc(C(F)(F)F)cc32)CC1 [FLUPHENAZINE] and report it.
4

The reported measurements were obtained from ChEMBL document CHEMBL3885861.
